Target: human FFA2-eYFP (Homo sapiens)
Construct: expressed in transfected cells; host or cells: membranes of Flp-In T-Rex 293 cells induced to express the construct
Sequence (O15552 whole entry): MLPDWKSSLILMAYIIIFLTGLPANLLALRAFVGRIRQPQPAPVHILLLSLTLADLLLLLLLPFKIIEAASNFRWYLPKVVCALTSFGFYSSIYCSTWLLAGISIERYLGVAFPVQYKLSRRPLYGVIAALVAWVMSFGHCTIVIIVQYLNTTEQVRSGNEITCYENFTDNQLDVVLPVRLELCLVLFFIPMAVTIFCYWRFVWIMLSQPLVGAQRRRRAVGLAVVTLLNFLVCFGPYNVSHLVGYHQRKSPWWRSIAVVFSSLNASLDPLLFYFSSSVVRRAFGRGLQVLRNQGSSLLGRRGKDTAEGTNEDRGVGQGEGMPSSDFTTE
Assay: [35S]GTPγS incorporation assay, membranes of Flp-In T-Rex 293 cells
Assay type: biochemical
Settings: pIC50, GTPγS – ClogP
ENDPOINT: LLEGTPγS
Reply briefly: the number, and no unit.

// known answers, use as guide
O=C(N[C@@H](Cc1ccc(C(F)(F)F)cc1)Cc1nnn[nH]1)C1Cc2ccccc21 (stereo partly shown) [Compound 16b] : 5.49
CCCCCC(=O)N[C@@H](Cc1ccc(C(F)(F)F)cc1)Cc1nnn[nH]1 [Compound 16p] : 3.46
O=C(Cc1cccc(C(F)(F)F)c1)N[C@@H](Cc1ccc(C(F)(F)F)cc1)Cc1nnn[nH]1 [Compound 16i] : 4.60

Now for a further compound.
// query Entry O=C(CCc1ccccc1)N[C@@H](Cc1ccc(C(F)(F)F)cc1)Cc1nnn[nH]1 [Compound 16q] has what LLEGTPγS?
// result 4.30
